- System: Mycobacterium tuberculosis
- RUN_DESCRIPTION: Antimycobacterial activity against Mycobacterium tuberculosis H37RV assessed as bacterial growth inhibition
- Format: functional
MEASURED_PARAMETER: MIC (µM)

- COMPOUND_STRUCTURE: "Cc1nn2c(=O)cc(-c3ccc(F)c(F)c3)[nH]c2c1-c1ccccc1"
  NUMERIC_VALUE: 1.56
- COMPOUND_STRUCTURE: "COc1ccc(-c2cc(=O)n3nc(C)c(-c4ccc(Cl)cc4)c3[nH]2)cc1"
  NUMERIC_VALUE: 3.12
- COMPOUND_STRUCTURE: "O=c1cc(CC2CCCCC2)[nH]c2c(-c3ccc(Cl)cc3)cnn12"
  NUMERIC_VALUE: 0.78
- COMPOUND_STRUCTURE: "Cc1nn2c(=O)cc(-c3ccccc3)[nH]c2c1-c1ccccc1"
  NUMERIC_VALUE: 3.12

====

- RUN_DESCRIPTION: Selectivity index, ratio of IC50 for anticancer activity against human HepG2 cells to MIC for antimycobacterial activity against Mycobacterium tuberculosis
- Type: toxicity, cell-based
- MEASUREMENT_PARAMETERS: read-out: Selectivity Index

- COMPOUND_STRUCTURE: "Cc1nn2c(=O)cc(-c3ccc(F)c(F)c3)[nH]c2c1-c1ccccc1"
  selectivity ratio: "> 36"
